Item-by-item account of pIC50
assay: Inhibition of HCV genotype 1a NS5A infected in Huh7 cells assessed as reduction in viral replication incubated 3 days and measured by bright Glo-luciferase reporter gene assay
Please note pIC50 is a logarithmic value: minus log10 of concentration in mol/L. Answer with that number alone.

Consider the following illustrative entries.
COC(=O)N[C@H](C(=O)N1CCC[C@H]1c1ncc(-c2ccc(C#CC#Cc3cnc([C@@H]4CCCN4C(=O)[C@H](NC(=O)OC)c4ccccc4)[nH]3)c(-c3ccc(N4CCN(C)CC4)cc3)c2)[nH]1)C(C)C
9.95
COC(=O)N[C@H](C(=O)N1CCC[C@H]1c1ncc(C#CC#Cc2ccc(-c3cnc([C@@H]4CCCN4C(=O)[C@@H](NC(=O)OC)C(C)C)[nH]3)cc2-c2ccc3ccccc3c2)[nH]1)C(C)C
9.61
COC(=O)N[C@H](C(=O)N1CCC[C@H]1c1ncc(-c2ccc(C#CC#Cc3cnc([C@@H]4CCCN4C(=O)[C@H](NC(=O)OC)c4ccccc4)[nH]3)c(N(C)c3ccccc3)c2)[nH]1)C(C)C
10.14

Reported pIC50 of COC(=O)N[C@H](C(=O)N1CCC[C@H]1c1ncc(C#CC#Cc2ccc(-c3cnc([C@@H]4CCCN4C(=O)[C@H](NC(=O)OC)c4ccccc4)[nH]3)cc2)[nH]1)C(C)C : 9.68

Reported pIC50 of COC(=O)N[C@H](C(=O)N1CCC[C@H]1c1ncc(C#CC#Cc2ccc(-c3cnc([C@@H]4CCCN4C(=O)[C@@H](NC(=O)OC)C(C)C)[nH]3)cc2)[nH]1)c1ccccc1 : 9.12
